- Tested on: 5637
- methodSummary: Growth inhibition of human 5637 cells incubated for 96 hrs by crystal violet assay
- Format: functional, cell-based
- statedConditions: Homo sapiens, 5637, 96 h
assayEndpoint: IC50

O=C(CCCN1CCC(O)(c2ccc(Cl)cc2)CC1)c1ccc(F)cc1 ... 2.3 µM

Hello, please tell me recorded IC50 for this one: `O[C@H]1C[C@H]2CN(CC3CCCCC3)[C@@H]1CN2Cc1ccccc1`
> 20 µM

Hello, please tell me recorded IC50 for this one: `O[C@H]1CC[C@H]2CN(CC3CCCCC3)[C@@H]1CN2Cc1ccccc1`
> 20 µM

---

- System: 5637
- methodSummary: Growth inhibition of human 5637 cells incubated for 96 hrs by crystal violet assay
- Assay type: functional, cell-based
- statedConditions: Homo sapiens, 5637, 96 h
assayEndpoint: pIC50
Field pIC50 (float): negative decimal logarithm of the concentration in molar.

Solved entries (count: 2):
O[C@@H]1C[C@H]2CN(CC3CCCCC3)[C@@H]1CN2Cc1cccc2ccccc12 ... 5.31
O[C@H]1C[C@H]2CN(CC3CCCCC3)[C@@H]1CN2Cc1cccc2ccccc12 ... 5.37

Hello, please tell me recorded pIC50 for this one: `O[C@@H]1C[C@@H]2CN(CC3CCCCC3)[C@H]1CN2Cc1ccccc1`
5.32

Hello, please tell me recorded pIC50 for this one: `O[C@H]1C[C@@H]2CN(CC3CCCCC3)[C@H]1CN2Cc1cccc2ccccc12`
5.64

Hello, please tell me recorded pIC50 for this one: CC(C)=CCN1CC[C@]2(C)c3cc(O)ccc3C[C@H]1[C@H]2C [(+)-PENTAZOCINE]
5.46
